test system: MS2 coat protein; assay: apparent Kd, MS2 coat protein; higher = weaker binding; RNA-MaP array; conditions: ligand present: flavin mononucleotide; designed as: OFF switch for flavin mononucleotide
Tag: 1 if measured apparent Kd is not below 50 nM, -1 if it is.

# sequence_chain, category_label
measured = [
    ("GUCAUUCAAGUGAGGAUAUCUGCGAUGCCGAAAGGAGAGAAGGCACAUGAGGAUCACCCAUGUGGUGUUUAUAU", 1),
    ("ACUCAGUCAGGAUAUAGAGCCGCACGAGAUCGUGACUCGAUCUAGAAGGGACAUGAGGAUCACCCAUGUUAAGA", -1),
]

Problem: Record GAUGAGUUUAAGGAUAUGGUGCGUUGCUUCUUACCAGAAGGUAAAACAUGAGGAUCACCCAUGUGACGGGUGCC ; criterion: apparent Kd no lower than 50 nM. Met?
Result: 1

Problem: Exam item: decide whether the reported apparent Kd for UGCCCACAGGAGAAGGUGGCUCAACCAGAGCGCCAAGGAUAUCCGGAGUUACUCCUCACUACAUGAGGAUCACCCAUGUUUCAU is at least 50 nM.
Result: 1

Problem: Please indicate if the recorded apparent Kd for AAUAAGUUAGGAUAUUCAGGAGCAGCGCAAUGGUACGAGUCGAAGAAGGAACAUGAGGAUCACCCAUGUGAACC meets or exceeds 50 nM.
Result: -1

Problem: Hi, just wondering whether ACAACGUAACGAGGAUAUAAUCUAAAAGUUCGGUGACGUAGACAUGAGGAUCACCCAUGUUAGUAUUAGAAGGCGUUCGGCGGG shows apparent Kd of 50 nM or higher.
Result: -1

Problem: hey, is apparent Kd for this one >= 50 nM? UGUUUGCAAAGAGGAUAUUGGCCAACUGCUGGACAAGAAGGCUUUUAACAAGAUCCUUACAUGAGGAUCACCCAUGUUAGCGUA
Result: 1

Problem: For this sequence, is measured apparent Kd 50 nM or higher? CCGGCGGAAGGAUAUUGCGAUGACCACAUGAGGAUCACCCAUGUCAACUUGAUCCGGGUACAAGAAGGUCCAGCGA
Result: -1

Problem: Textbook exercise: given the entry AUCAUGUUAGGAUAUACAAUGUAACGAUCAUUCUUGUAUGCGUAGAAGGAACAUGAGGAUCACCCAUGUGGAAG , state whether its apparent Kd is greater than or equal to 50 nM.
Result: -1

Problem: // inclusive: apparent Kd at least 50 nM? input: GACGUGGUGAAGAAGGGCUGACGUAACCGGUGAGCAGGAUAUUCGACUCAUUAAUACAUGAGGAUCACCCAUGUUCGGUAGCGC
Result: 1

Problem: Check this sequence for apparent Kd at or above 50 nM: AAACGGUAAGGAUAUCCACCAGGAUUGGAGCCACCUAAUUCGGAGAAGGUACAUGAGGAUCACCCAUGUCGGGU
Result: 1

Problem: Does the reported apparent Kd for CGAAAUUCAGUAAGGAUAUUAGGAGGCUCUGCGGCUAAGAAGGUACAUGAGGAUCACCCAUGUGGCACCGCAUG fall at or above the 50 nM mark?
Result: -1

Problem: Is apparent Kd for UCCUUGGAGUCAGGAUAUGUCGACAACGGAAUGACAGAAGGGACUUGGCAGCUUAAUUCUUCAGUACAUGAGGAUCACCCAUGU at or above 50 nM?
Result: -1

Problem: Does the reported apparent Kd for UUACGGGAAGGAUAUCAUUGAAGGUACAUGAGGAUCACCCAUGUCUGAUGCGCAUCGCCGUGAGAAGGUCCUGCUU fall at or above the 50 nM mark?
Result: -1
